# System: HOP-62 NSCLC
# ASSAY REMARKS: NCI tumour cell line growth inhibition, 48 h
METRIC: TGI

{"columns": ["MOLECULE", "STUDY SYSTEM", "RESULT"],
 "data": [
  ["CC(=O)Nc1ccc2c(C)c3c(nc2n1)[nH]c1ccccc13", "HOP-62 NSCLC", "> 100 µM"],
  ["CCSC1=NC2C(N(CC)C(=O)N2CC)N1/N=C/C=C/c1ccccc1[N+](=O)[O-] (configuration not stated)", "HOP-62 NSCLC", "> 100 µM"]
]}

input: Fill in: TGI of Cc1ccc2nc(SCC(=O)N=Nc3c(O)[nH]c4ccccc34)n(-c3ccccc3)c(=O)c2c1 is ___
output: 24.6 µM

input: Would you mind doing CC1=NNC(=O)C1C1C(=O)NN=C(c2c[nH]c3ccccc23)C1Br (configuration not stated) as well?
output: > 100 µM

input: Would you mind doing Cn1c(=O)c(N=Nc2c(=O)n(C)c(=O)n3c2[nH]c2ccccc23)c2[nH]c3ccccc3n2c1=O as well?
output: > 100 µM

input: Would you mind doing Cc1ccc(Nc2nc3[nH]ccc3c(=O)[nH]2)cc1 as well?
output: > 100 µM

input: Would you mind doing O=C(/C=C/c1ccccc1)Oc1cccc2cccnc12 as well?
output: > 100 µM
